Assign ID50 to each entry below.
System tested: Serotonin 3 (5-HT3) receptor (Homo sapiens) (UniProt P46098+A5X5Y0+O95264+Q70Z44+Q8WXA8)
Please report the result as a number followed by the unit.

CN1C2CCC1CC(OC(=O)c1[nH]nc3ccccc13)C2 (centres undefined) : 5 µg/kg
CN1C2CCCC1CC(NC(=O)c1[nH]nc3ccccc13)C2 (centres undefined) : 1 µg/kg
CN1C2CCC1CC(NC(=O)c1n[nH]c3ccccc13)C2 (centres undefined) : 1.5 µg/kg

Query block: Param item = CN1[C@@H]2CC[C@H]1C[C@@H](OC(=O)c1c[nH]c3ccccc13)C2 ; retrieve measured ID50.
Result block: 1.4 µg/kg

---

System tested: Serotonin 4 (5-HT4) receptor (Sus scrofa) (UniProt Q6Q253)
Sequence (Q6Q253 as listed by the source): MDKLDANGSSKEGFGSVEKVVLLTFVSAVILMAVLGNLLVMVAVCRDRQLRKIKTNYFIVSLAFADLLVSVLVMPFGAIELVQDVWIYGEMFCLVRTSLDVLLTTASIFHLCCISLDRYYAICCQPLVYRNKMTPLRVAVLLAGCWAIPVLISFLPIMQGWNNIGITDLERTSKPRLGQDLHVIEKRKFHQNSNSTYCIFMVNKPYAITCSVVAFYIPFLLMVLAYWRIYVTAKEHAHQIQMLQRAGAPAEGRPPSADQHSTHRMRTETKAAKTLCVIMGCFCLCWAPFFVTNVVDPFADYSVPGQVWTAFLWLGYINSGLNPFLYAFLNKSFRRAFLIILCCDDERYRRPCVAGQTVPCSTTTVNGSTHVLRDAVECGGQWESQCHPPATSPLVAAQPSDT
Method: Evaluated for the 5-hydroxytryptamine 4 receptor antagonistic activity in piglet atrium model
Format: functional, tissue-based
Conditions: Cardiac atrium
Give measured -Log KB for each item. Keep answers brief.
Numbers only.

CN1C2CCC1CC(NC(=O)N1CC(C)(C)c3ccccc31)C2 (stereo unspecified) : 4.9
CN1C2CCC1CC(OC(=O)c1[nH]nc3ccccc13)C2 (stereo unspecified) : 7.2
CN1[C@@H]2CC[C@H]1C[C@H](NC(=O)c1nn(C)c3ccccc13)C2 : 6.5
CN1C2CCCC1CC(NC(=O)c1[nH]nc3ccccc13)C2 (stereo unspecified) : 5
CN1C2CCC1CC(NC(=O)c1n[nH]c3ccccc13)C2 (stereo unspecified) : 6.8

Could you now look at the following compound, please?
Query block: Which -Log KB is listed for CN1[C@@H]2CC[C@H]1C[C@@H](OC(=O)c1c[nH]c3ccccc13)C2 ?
Result block: 6.9
